All values here come from ChEMBL document CHEMBL5365431.

test system: V79; assay: Antiproliferative activity against Chinese hamster V79 cells harboring wild type BRCA2 assessed as cell proliferation inhibition incubated for 7 days by SRB assay; assay type: functional, cell-based; settings: Cricetulus griseus
outcome-measure: IC50 (nM)
Numbers only, in nM.

Recall the reported IC50 of O=C(c1cc(Cc2n[nH]c(=O)c3ccccc23)ccc1F)N1CCn2c(nnc2-c2ccc(Br)o2)C1 when tested on V79.
29.3

====

tested on: CAPAN-1; test: Antiproliferative activity against human Talazoparib-resistant CAPAN-1 cells assessed as cell proliferation inhibition incubated for 7 days by SRB assay; format: functional, cell-based
IC50 under 40 nM gets YES, anything at or over 40 nM gets NO.

Examples from the recorded data:
Cn1ccc(-c2nnc3n2CCN(C(=O)c2cc(Cc4n[nH]c(=O)c5ccccc45)ccc2F)C3)n1 : NO
O=C(c1cc(Cc2n[nH]c(=O)c3ccccc23)ccc1F)N1CCn2c(nnc2-c2ccc(Br)o2)C1 : YES
Cc1cc(-c2nnc3n2CCN(C(=O)c2cc(Cc4n[nH]c(=O)c5ccccc45)ccc2F)C3)oc1C : YES
O=C(c1cc(Cc2n[nH]c(=O)c3ccccc23)ccc1F)N1CCn2c(nnc2-c2ccc(C3CCOCC3)o2)C1 : NO
O=C(c1cc(Cc2n[nH]c(=O)c3ccccc23)ccc1F)N1CCn2c(nnc2-c2cc(Br)c(Cl)o2)C1 : YES

API: query returns whether the compound falls strictly under 40 nM in IC50. Query: CN(C)Cc1ccc(-c2nnc3n2CCN(C(=O)c2cc(Cc4n[nH]c(=O)c5ccccc45)ccc2F)C3)o1
NO

API: query returns whether the compound falls strictly under 40 nM in IC50. Query: CNCC(F)(F)c1ccc(-c2nnc3n2CCN(C(=O)c2cc(Cc4n[nH]c(=O)c5ccccc45)ccc2F)C3)o1
NO

API: query returns whether the compound falls strictly under 40 nM in IC50. Query: O=C(c1cc(Cc2n[nH]c(=O)c3ccccc23)ccc1F)N1CCn2c(nnc2-c2ccoc2)C1
NO
